B1: glmS ribozyme (parent)
chain: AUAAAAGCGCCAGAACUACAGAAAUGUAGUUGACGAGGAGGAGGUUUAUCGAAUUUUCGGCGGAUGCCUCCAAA

variants of: B1; assay: kcat; higher = faster cleavage; RNA array; conditions: with glucosamine-6-phosphate
This sample holds only a part of the variants without activity.
# if value of kcat reaches 0.0005 s⁻¹, tag class 1; if it stays below, tag class 0

INSERT INTO results (mutations, answer_label) VALUES
  ('U49C C67G', 'class 0'),
  ('C34U G60C', 'class 0');

Tell me whether kcat is at least 0.0005 s⁻¹ here: C8A C70U
class 0

Tell me whether kcat is at least 0.0005 s⁻¹ here: A14U G59U
class 0

Tell me whether kcat is at least 0.0005 s⁻¹ here: G35C U65G
class 0

Tell me whether kcat is at least 0.0005 s⁻¹ here: G32U A36U
class 0

Tell me whether kcat is at least 0.0005 s⁻¹ here: U55C C61G
class 0

Tell me whether kcat is at least 0.0005 s⁻¹ here: G7C A53G
class 0

Tell me whether kcat is at least 0.0005 s⁻¹ here: G37U U45A
class 0

Tell me whether kcat is at least 0.0005 s⁻¹ here: U49G C50G
class 0
